# assay_target: von Willebrand factor (VWF) (Homo sapiens, UniProt P04275 P04275:764-2813)
# protocol: filter; Bmax 53%; 2 mM CaCl2, 37 C
# conditions: tags: factor VIII free, Haematologic Technologies Inc; label: 5'-32P
pKd: −log10 of the molar value.
observable: pKd

binder: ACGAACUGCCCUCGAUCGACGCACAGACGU (ssRNA, mAfCmGmAmAmCfUmGfCfCfCfUmCmGmAmUmCmGmAfCmGfCmAmCmAmGmAfCmGfU-idT) [T59 vrt4]
readout_number: 6.44

Numbers sourced from patent US20190218553.
